Tested on: 922993-354-T-J3-PDC complex spheroids, viability, % test/control;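 note: spheroids exposed to the agents for 7 days before readout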
Protocol details: Anticancer human tumor 922993-354-T-J3-PDC patient-derived endometrial carcinoma cell line growth inhibition [CLK]
Run parameters: second compound 3.16 µM; first compound 0.1 µM; hits give low values
Would you mind telling me the reported viability, T/C of each entry?
One number for each entry, in %.

Solved entries:
Molecule: CC1(C)CCC(CN2CCN(c3ccc(C(=O)NS(=O)(=O)c4ccc(NCC5CCOCC5)c([N+](=O)[O-])c4)c(Oc4cnc5[nH]ccc5c4)c3)CC2)=C(c2ccc(Cl)cc2)C1 + CNC(=O)c1ccc(Nc2nc(OC3CCCC3)c3c(-c4ccc5nc(C)oc5c4)c[nH]c3n2)c(OC)c1
viability, T/C / %: 33.6

Molecule: CC(=O)O[C@H]1C(=O)[C@@]2(C)[C@H]([C@H](OC(=O)c3ccccc3)[C@]3(O)C[C@H](OC(=O)[C@H](O)[C@@H](NC(=O)c4ccccc4)c4ccccc4)C(C)=C1C3(C)C)[C@]1(OC(C)=O)CO[C@@H]1C[C@@H]2O + CN1CCN(c2cc(C(=O)Nc3cc4cc(-c5cnn(C)c5)ccc4cn3)ccn2)CC1
viability, T/C / %: 0.79

Molecule: CC1(C)CCC(CN2CCN(c3ccc(C(=O)NS(=O)(=O)c4ccc(NCC5CCOCC5)c([N+](=O)[O-])c4)c(Oc4cnc5[nH]ccc5c4)c3)CC2)=C(c2ccc(Cl)cc2)C1 + CN1CCN(c2cc(C(=O)Nc3cc4cc(-c5cnn(C)c5)ccc4cn3)ccn2)CC1
viability, T/C / %: 0.14

Molecule: O=c1[nH]cc(F)c(=O)[nH]1 + CN1CCN(c2cc(C(=O)Nc3cc4cc(-c5cnn(C)c5)ccc4cn3)ccn2)CC1
viability, T/C / %: 0.09

Molecule: COC1C=CCC(C)C(C)S(=O)(=O)NC(=O)c2ccc3c(c2)N(CC2CCC21)CC1(CCCc2cc(Cl)ccc21)CO3 (stereo not given) + CNC(=O)c1ccc(Nc2nc(OC3CCCC3)c3c(-c4ccc5nc(C)oc5c4)c[nH]c3n2)c(OC)c1
viability, T/C / %: 30.2

Hi there! I need viability, T/C for each item below, if you can.
1. Nc1ccccc1NC(=O)c1ccc(CNC(=O)OCc2cccnc2)cc1 + CN1CCN(c2cc(C(=O)Nc3cc4cc(-c5cnn(C)c5)ccc4cn3)ccn2)CC1
2. Nc1ccn(C2OC(CO)C(O)C2(F)F)c(=O)n1 (stereo not given) + CNC(=O)c1ccc(Nc2nc(OC3CCCC3)c3c(-c4ccc5nc(C)oc5c4)c[nH]c3n2)c(OC)c1
3. Nc1ccn(C2OC(CO)C(O)C2(F)F)c(=O)n1 (stereo not given) + CN1CCN(c2cc(C(=O)Nc3cc4cc(-c5cnn(C)c5)ccc4cn3)ccn2)CC1
4. Cn1ncnc1[C@H]1c2n[nH]c(=O)c3cc(F)cc(c23)N[C@@H]1c1ccc(F)cc1 + CN1CCN(c2cc(C(=O)Nc3cc4cc(-c5cnn(C)c5)ccc4cn3)ccn2)CC1
5. C=C(F)C(=O)N1CCN(c2nc(OCC3CCCN3C)nc3c2CCN(c2cccc4cccc(Cl)c24)C3)CC1CC#N (stereo not given) + CNC(=O)c1ccc(Nc2nc(OC3CCCC3)c3c(-c4ccc5nc(C)oc5c4)c[nH]c3n2)c(OC)c1
6. CC1COCCN1c1cc(C2(S(C)(=N)=O)CC2)nc(-c2ccnc3[nH]ccc23)n1 (stereo not given) + CN1CCN(c2cc(C(=O)Nc3cc4cc(-c5cnn(C)c5)ccc4cn3)ccn2)CC1

Reply:
1: 0.12; 2: 15.8; 3: 2.53; 4: 1.3; 5: 32; 6: 0.13

Hi there! I need viability, T/C for each item below, if you can.
1. CC(Nc1ccc2c(c1)OCCn1cc(N3C(=O)OCC3C(F)F)nc1-2)C(N)=O (stereo not given) + CNC(=O)c1ccc(Nc2nc(OC3CCCC3)c3c(-c4ccc5nc(C)oc5c4)c[nH]c3n2)c(OC)c1
2. CCc1c2c(nc3ccc(O)cc13)-c1cc3c(c(=O)n1C2)COC(=O)[C@]3(O)CC + CNC(=O)c1ccc(Nc2nc(OC3CCCC3)c3c(-c4ccc5nc(C)oc5c4)c[nH]c3n2)c(OC)c1
3. C=CC(=O)N1CCN(c2nc(=O)n(-c3c(C)ccnc3C(C)C)c3nc(-c4c(O)cccc4F)c(F)cc23)C(C)C1 (stereo not given) + CN1CCN(c2cc(C(=O)Nc3cc4cc(-c5cnn(C)c5)ccc4cn3)ccn2)CC1
4. CCc1c2c(nc3ccc(O)cc13)-c1cc3c(c(=O)n1C2)COC(=O)[C@]3(O)CC + CN1CCN(c2cc(C(=O)Nc3cc4cc(-c5cnn(C)c5)ccc4cn3)ccn2)CC1

Reply:
27.4
13.8
0.17
1.34

The reported measurements were obtained from PubChem BioAssay AID2060606.
